Data origin: paper PMC6099102

Property: log KML; scope: individual molecules
assay: Stability and protonation constants and pMn of the Mn(II) complexes (pH-potentiometry and/or 1H relaxometry); assay type: physicochemical; settings: stability constant of the Mn(II) complex; I = 0.15 M NaCl, 25 °C

O=C(O)CN1CCN(CC(=O)O)Cc2cccc(n2)CN(CC(=O)O)CC1; 16.83 (1)

In the following, a different molecule is considered.
Notebook: `O=P(O)(O)CN1CCN(CP(=O)(O)O)CCN(CP(=O)(O)O)CCN(CP(=O)(O)O)CC1` , log KML read as 18.98 (1)

====

assay: Dissociation kinetics of the Mn(II) complexes (acid catalyzed dissociation, metal or ligand exchange reactions); assay type: physicochemical; details: half-life of dissociation calculated for pH 7.4, 10 μM exchanging metal ion; I = 0.15 M NaCl, 25 °C
quantity measured: t1/2 pH = 7.4 cM = 10^−5 M

Previously resolved entries follow.
O=C([O-])CN1CCNCCN(CC(=O)[O-])CCN(CC(=O)[O-])CC1.[Mn+2] [[Mn(DO3A)]^−]; 1.1 × 10^4 h
NC(=O)CN1CCNCCN(CC(N)=O)CCN(CC(N)=O)CC1.[Mn+2] [[Mn(DO3AM^H)]^2+]; 5.2 × 10^3 h

In the following, a different compound is considered.
Notebook: O=C([O-])CN1CCOCCN(CC(=O)[O-])CCN(CC(=O)[O-])CC1.[Mn+2] [[Mn(ODO3A)]^−] , t1/2 pH = 7.4 cM = 10^−5 M read as 1.8 × 10^2 h
